The measurements presented in this section are drawn from ChEMBL document CHEMBL4513216.

Experiment: Toxicity liver stage against HepG2, at 10uM
Type: cell-based
Design: test concentration 10 uM, cell line HepG2-A16-CD81EGFP
Conditions: human, HepG2-A16-CD81EGFP cells; read-out: INHIBITION
Below: a set of entries, each annotated with reported cytotoxicity at 10 µM.
Report as a plain number; the unit % is understood.

>  <molecule>
Cc1nn(C2CCS(=O)(=O)C2)c(O)c1Cc1ccccc1 (stereo not drawn)

>  <result unit>
%

>  <cytotoxicity at 10 µM>
-44.6

$$$$
>  <molecule>
CN(Cc1ccco1)c1ccc(-c2nccn2C)nn1

>  <result unit>
%

>  <cytotoxicity at 10 µM>
-0.447

$$$$

Let us move to another entry and its cytotoxicity at 10 µM.
Q) Input Cc1nc(NC(=O)c2cccnc2N2CCOCC2)sc1C , output reported cytotoxicity at 10 µM.
A) -0.0261

###

Below: a set of entries, each annotated with reported cytotoxicity at 10 µM.
Experiment: Toxicity liver stage against HepG2, at 10uM
Type: cell-based
Set-up: test concentration 10 uM, cell line HepG2-A16-CD81EGFP
Settings: human, HepG2-A16-CD81EGFP cells; read-out: INHIBITION
Report as a plain number; the unit % is understood.

Please review the following examples before continuing.
>  <compound>
Cc1nc(C2CCN(c3ccccc3)CC2)no1

>  <metric>
cytotoxicity at 10 µM

>  <result unit>
%

>  <observed measurement>
-28.4

$$$$
>  <compound>
COc1cnc(N2CCCN(c3ccc(F)cc3)CC2)nc1

>  <metric>
cytotoxicity at 10 µM

>  <result unit>
%

>  <observed measurement>
-10.6

$$$$
>  <compound>
Cc1ccc2c(c1)C(NCc1nnc3n1CCCCC3)CCCO2 (configuration not stated)

>  <metric>
cytotoxicity at 10 µM

>  <result unit>
%

>  <observed measurement>
-3.39

$$$$
>  <compound>
CC(C)CC(CC(C)C)NC(=O)c1ccn(C)c(=O)c1

>  <metric>
cytotoxicity at 10 µM

>  <result unit>
%

>  <observed measurement>
-0.717

$$$$
>  <compound>
O=C(Nc1cc(N2CCOCC2)ncn1)c1cnccn1

>  <metric>
cytotoxicity at 10 µM

>  <result unit>
%

>  <observed measurement>
-3.45

$$$$

Let us move to another entry and its cytotoxicity at 10 µM.
Q) Input Cc1cccnc1CN1CCN(CC(=O)N(C)C)[C@@H]2CS(=O)(=O)C[C@@H]21 , output reported cytotoxicity at 10 µM.
A) -2.33

###

Assay: Toxicity liver stage against HepG2, at 10uM
Format: cell-based
Parameters: test concentration 10 uM, cell line HepG2-A16-CD81EGFP
Settings: human, HepG2-A16-CD81EGFP cells; read-out: INHIBITION
Below: a set of entries, each annotated with reported cytotoxicity at 10 µM.
Report as a plain number; the unit % is understood.

Please review the following examples before continuing.
>  <molecule>
OCCN1CCC(CNCCOCC(F)(F)F)CC1

>  <cytotoxicity at 10 µM [%]>
-0.903

$$$$
>  <molecule>
COCC1CN(Cc2cccnc2OC)Cc2cnn(C)c21 (stereo unspecified)

>  <cytotoxicity at 10 µM [%]>
2.69

$$$$
>  <molecule>
Cc1nn(CC(C)C)c(N(C)C)c1CNCCC(=O)NC(C)C

>  <cytotoxicity at 10 µM [%]>
7.45

$$$$
>  <molecule>
CCc1ccccc1OC1CN(CC2CCOC2)C1 (stereo unspecified)

>  <cytotoxicity at 10 µM [%]>
-25.2

$$$$
>  <molecule>
CC(C)(C)c1ncc(CNc2ccccc2SCCC(N)=O)s1

>  <cytotoxicity at 10 µM [%]>
55.4

$$$$

Q) Input Cc1nnc(NC(=O)NCc2ccc(F)cc2)s1 , output reported cytotoxicity at 10 µM.
A) -26

Q) Input O=C(NCCNc1ccc(C(F)(F)F)cn1)c1ccc(Cl)cc1F , output reported cytotoxicity at 10 µM.
A) -1.99

Q) Input O=C(c1ccco1)N1CCC2(CC1)C(=O)Nc1ccccc12 , output reported cytotoxicity at 10 µM.
A) -144

Q) Input CC(=O)N1[C@H](Cn2cncn2)C[C@@H]2CN(C(=O)NC3CC3)CC[C@@H]21 , output reported cytotoxicity at 10 µM.
A) -5.16

Q) Input Cc1cc(NC(=O)N2CCN(C)CC2C)n(C)n1 (stereo unspecified) , output reported cytotoxicity at 10 µM.
A) 9.92

Q) Input CCCc1n[nH]c(C2CN(C(=O)c3cc(C4CC4)on3)CCO2)n1 (stereo unspecified) , output reported cytotoxicity at 10 µM.
A) 0.471

Q) Input COCC(O)CN(C)c1ccnc2cc(Br)ccc12 (stereo unspecified) , output reported cytotoxicity at 10 µM.
A) 5.02

Q) Input Cc1ccc(=O)n(Cc2nc(C(C)OCC(C)C)no2)n1 (stereo unspecified) , output reported cytotoxicity at 10 µM.
A) -3.21

Q) Input CSc1nnc(CNC(=O)Nc2ccccc2Br)n1C , output reported cytotoxicity at 10 µM.
A) 1.31

Q) Input CSc1sc(NC(=O)Cc2c(C)nc(C)[nH]c2=O)nc1C , output reported cytotoxicity at 10 µM.
A) -1.29
